Please go through the items and note down their CC50 at 72 h.
method_notes: Cytotoxicity in PBMC, CellTiter 96 MTS viability assay
Type: cell-based
study_conditions: human, human primary PBMCs; 72 h
One number for each entry, in µM.

Here is how some molecules turned out for CC50 at 72 h.
>>> recorded_result("CCOCc1cn(-c2cccc(S(=O)(=O)Nc3ccccc3C(F)(F)F)c2)nn1 [Compound 66d]")
703
>>> recorded_result("Cc1ccccc1NC(=O)Nc1cccc([N+](=O)[O-])c1 [EI01D, reference compound]")
100

Read the next record carefully.
For reference, reported CC50 at 72 h for CCCCc1cn(-c2cccc(S(=O)(=O)Nc3ccccc3C(F)(F)F)c2)nn1 [Compound 64d] stands at 198
